# procedure.details: protein stability index of a GFP-peptide fusion (yeast GPS) (PSI 1-4); higher = more stable; sorted into four equal gates, so the index is relative within each strain
# reported.conditions: doa10∆
Consider the following sequences and their measured protein stability index readings.

Example results:
>  <polymer.sequence>
GKPVSLPLLYNFNPDNG [FAS1]

>  <protein stability index>
2.93

$$$$
>  <polymer.sequence>
VVEISNGNTSSKTVVTL [FAS1]

>  <protein stability index>
3.11

$$$$
>  <polymer.sequence>
VEAGMIALRNGQSSVKH [RPT5]

>  <protein stability index>
2.87

$$$$
>  <polymer.sequence>
EEERRKKRESGVEEEEE [SNF2]

>  <protein stability index>
3.49

$$$$

Ask: Please give the measured protein stability index for this sequence: VDIVNQWFLQYQNQFVE [YML103C/NUP188]
Reply: 1.79

Ask: // repeat for VDEEDENGTHNDEVNED [YCG1] and report
Reply: 3.46

Ask: // repeat for GNLSGKRVDFSGRTVIS [RPO31] and report
Reply: 3

Ask: // repeat for TPGEVASKAIVQMAKIL [MCD1] and report
Reply: 3.26

Ask: // repeat for NEFQLQWGKYQTFGVDI [SWI1] and report
Reply: 2.98

Ask: // repeat for SVSPQMNAILTDVKLTL [SMD1] and report
Reply: 2.85

Ask: // repeat for PNIMLIFGSGFGSADDT [FAS1] and report
Reply: 3.07

Ask: // repeat for NQKLALVIKSGKYTLGY [RPL30] and report
Reply: 2.46

---

# procedure.details: protein stability index of a GFP-peptide fusion (yeast GPS) (PSI 1-4); higher = more stable; sorted into four equal gates, so the index is relative within each strain
# reported.conditions: pdr5∆
# if value of protein stability index reaches 3, tag 1 (yes); if it stays below, tag 0 (no)

Here are 5 sequences together with their reported answers.
>  <polymer.sequence>
GWYHSGPKLRASDLKIN [RPN8]

>  <label.class>
0 (no)

$$$$
>  <polymer.sequence>
LKGKINNEMKSLQRSKS [SMC1]

>  <label.class>
1 (yes)

$$$$
>  <polymer.sequence>
LEWLENPSNTPDKDYLL [FAS1]

>  <label.class>
1 (yes)

$$$$
>  <polymer.sequence>
LHGLRSFYDAIFFNIPL [YJL039C/NUP192]

>  <label.class>
0 (no)

$$$$
>  <polymer.sequence>
KMVIAELLPHYPFVTND [YJR042W/NUP85]

>  <label.class>
0 (no)

$$$$

Ask: Tell me whether protein stability index is at least 3 here: ALFLSKINRPPVSVSRI [RPL18A]
Reply: 0 (no)

---

# procedure.details: protein stability index of a GFP-peptide fusion (yeast GPS) (PSI 1-4); higher = more stable; sorted into four equal gates, so the index is relative within each strain
# reported.conditions: ubr1∆
# if value of protein stability index reaches 2, tag Y; if it stays below, tag N

Ask: Tell me whether protein stability index is at least 2 here: KNSDVWFLDHNYIENMN [RPN8]
Reply: Y

Ask: // repeat for KVISEILTKEVQGSTLA [RPS1A] and report
Reply: Y

Ask: // repeat for LARASGNYVIIIGHNPD [RPL2A] and report
Reply: Y

Ask: // repeat for QDENIGLSMLAKLKELA [RPC31] and report
Reply: Y

Ask: // repeat for PAEHPFISAARYKPKSH [RPC37] and report
Reply: Y

Ask: // repeat for LSDYEVLKFLTDLEKKH [RPC17] and report
Reply: Y

Ask: // repeat for VDLIEKFLRYNPLEKRD [RPB10] and report
Reply: Y

Ask: // repeat for DFRTRYIDIRTNNVLRK [MTW1] and report
Reply: Y

Values compiled from the supplement of paper PMC9732359.
